# Test system: KM12
# protocol.text: NCI tumour cell line growth inhibition, 48 h
The source made the active and inactive calls. No stated cut-off is given here; in the data, active = GI50 up to about 1.1 µM and inactive = higher.
metric: GI50

// known answers, use as guide
>  <molecule>
O=C(O)[C@@H]1CCCC[C@@H]1C(=O)N(C1CCCCC1)C1CCCCC1

>  <metric>
GI50

>  <measured>
> 100 µM (inactive)

$$$$
>  <molecule>
CCOC(=O)N1C/C(=C\c2ccc(N(C)C)cc2)C(=O)/C(=C/c2ccc(N(C)C)cc2)C1

>  <metric>
GI50

>  <measured>
> 100 µM (inactive)

$$$$
>  <molecule>
COc1ccccc1NC(=O)C(CC(C(=O)Nc1ccccc1OC)/C(C)=N/Nc1ccc([N+](=O)[O-])cc1[N+](=O)[O-])/C(C)=N/Nc1ccc([N+](=O)[O-])cc1[N+](=O)[O-] (centres undefined)

>  <metric>
GI50

>  <measured>
58.5 µM (inactive)

$$$$

We now examine a further molecule.
Bench note: what GI50 did COC(=O)C(=O)C(C(=O)C(=O)Nc1nc2ccc(C)cc2s1)c1nc2ccc([N+](=O)[O-])cc2nc1O (centres undefined) show?
> 100 µM (inactive)

----------
Provide the recorded GI50 for the entries that follow.
# Tested on: KM12
# protocol.text: NCI tumour cell line growth inhibition, 48 h
The source made the active and inactive calls. Rule as the data show it: active = GI50 up to about 1.1 µM and inactive = higher.

Below, 4 molecules whose answers are already recorded.
>  <molecule>
CC(C)(C)c1cc(C(P(=O)(c2ccccc2)c2ccccc2)P(=O)(c2ccccc2)c2ccccc2)cc(C(C)(C)C)c1O

>  <GI50>
1.8 µM (inactive)

$$$$
>  <molecule>
COC(=O)c1c(O)ccc2c1c1c(n2Cc2ccc(Cl)cc2Cl)C(=O)c2ccccc2C1

>  <GI50>
22 µM (inactive)

$$$$
>  <molecule>
COc1ccccc1/C=C1\SC(=S)N(/C=C2\C(=O)Oc3ccccc3C2=O)C1=O

>  <GI50>
34.3 µM (inactive)

$$$$
>  <molecule>
CC(C)(C)[Si](C)(C)OCC1OC(n2ccc(=O)[nH]c2=O)C(O[Si](C)(C)C(C)(C)C)/C1=N/O (stereo not given)

>  <GI50>
3.54 µM (inactive)

$$$$

Read the next record carefully.
Lab note: need GI50 with KM12 for entry COc1ccccc1[S+]([O-])Nc1ccccc1 (stereo not given) , please look it up.
12.5 µM (inactive)

----------
# Test system: EKVX
# protocol.text: NCI tumour cell line growth inhibition, 48 h
Active and inactive are the calls of the source. No stated cut-off is given here; in the data, active = GI50 up to about 1.1 µM and inactive = higher.
metric: GI50

Kindly give each listed record's GI50.
1. Cc1ccc(S(=O)(=O)Oc2ccc(OS(=O)(=O)c3ccc(C)cc3)c3c2C(=O)c2ccccc2C3=O)cc1
2. CN(C)CCC1(C2=CCCC2)CC/C(=C\c2ccc3c(c2)OCO3)C1=O (stereo unspecified)
3. Cn1ccnc1Sc1ccc(/C=N/NC(=O)c2ccccc2O)cc1[N+](=O)[O-]
4. c1ccc(-c2nc3ccccc3n3nnnc23)cc1
5. Cn1c(=O)c2nc3c4ccccc4c(=O)n(C)c3nc2n(C)c1=O
6. O=C(Cn1cc(-c2ccccc2)nn1)NC1CCCC1

1. > 100 µM (inactive)
2. 15.8 µM (inactive)
3. 94 µM (inactive)
4. 11.5 µM (inactive)
5. > 100 µM (inactive)
6. > 100 µM (inactive)

----------
# Test system: NCI-H23
# protocol.text: NCI tumour cell line growth inhibition, 48 h
The source made the active and inactive calls. No stated cut-off is given here; in the data, active = GI50 up to about 1.1 µM and inactive = higher.
metric: GI50

Some compounds with recorded GI50:
>  <compound>
CCOC(=O)C(C)NC(=O)C(C)NC(=O)C(C)NC(=O)C(C)NC(=O)C(C)NC(=O)OCc1ccccc1 (stereo unspecified)

>  <GI50>
> 100 µM (inactive)

$$$$
>  <compound>
C#CCC[C@@H]1O[C@@]1(C)CC/C=C(\C)CC/C=C/C=O

>  <GI50>
29 µM (inactive)

$$$$
>  <compound>
COc1ccc(OC)c2[nH]c(Sc3c([N+](=O)[O-])ncn3C)nc12

>  <GI50>
17.5 µM (inactive)

$$$$
>  <compound>
C=CCN1C(=O)/C(=C/c2ccc(Cl)cc2)N=C1SC/C=C/C

>  <GI50>
32.1 µM (inactive)

$$$$
>  <compound>
Oc1ccc(Cl)cc1-c1cc(-c2ccccc2)nc(S)n1

>  <GI50>
88.5 µM (inactive)

$$$$

Now let's try a different one.
Requested read-out: GI50. Entry: "CCCCCCCCCCCCCCNCC(OC)OC"
20.2 µM (inactive)

----------
# Tested on: SK-OV-3
# protocol.text: NCI tumour cell line growth inhibition, 48 h
Active and inactive are the calls of the source. No stated cut-off is given here; in the data, active = GI50 up to about 1.1 µM and inactive = higher.
metric: GI50

Some solved cases for reference:
>  <compound>
C[C@]12c3c4cc(NC(=O)C(=O)NCc5ccc(-c6ccccn6)nc5)cc3Oc3cc(NC(=O)C(=O)NCc5ccc(-c6ccccn6)nc5)cc(c31)OC1C=C(NC(=O)C(=O)NCc3ccc(-c5ccccn5)nc3)C=C(O4)C12 (stereo not given in full)

>  <measured>
17 µM (inactive)

$$$$
>  <compound>
Clc1c(Cl)c(Cl)c2nn(C3CCCO3)nc2c1Cl (stereo not given)

>  <measured>
> 100 µM (inactive)

$$$$
>  <compound>
CSc1ccc(C2C(Cl)C(=O)N2NC(=O)c2c(Cl)c(Cl)c(Cl)c(Cl)c2-c2nc3ccccc3[nH]2)cc1 (stereo not given)

>  <measured>
26.6 µM (inactive)

$$$$
>  <compound>
COCCOCCOCCC(=O)NC1CC2CCC1(C)C2(C)C (stereo not given)

>  <measured>
> 100 µM (inactive)

$$$$

--- query ---
For COc1ccc(N(CN2C(=O)CCC2C(=O)O)C(C)=O)cc1 (stereo not given) , what is its reported GI50?
> 100 µM (inactive)

----------
# Tested on: XF498
# protocol.text: NCI tumour cell line growth inhibition, 48 h
Calls of active or inactive are those of the source. Cut-off read from the data, not from the text of the source: active = GI50 up to about 1.1 µM and inactive = higher.
For each record, write down the corresponding GI50.

>  <compound>
CC(Oc1ccc(Oc2cnc3ccc(Cl)cc3n2)cc1)C(=O)O (centres undefined)

>  <GI50>
> 100 µM (inactive)

$$$$

Hi there! I need GI50 for each item below, if you can.
1. O=C1N[C@@H]2CCCC[C@@H]2C12CCCCC2
2. COc1cc(C)c2c(c1C)OC(=O)c1c(C)c(Cl)c(O)c(C=O)c1O2
3. COC(=O)C(Cc1nc2ccccc2nc1O)C(=O)C(=O)Nc1ccc([N+](=O)[O-])cc1[N+](=O)[O-] (centres undefined)

1: > 100 µM (inactive); 2: 12.3 µM (inactive); 3: 20.1 µM (inactive)

----------
# Test system: MCF7
# protocol.text: NCI tumour cell line growth inhibition, 48 h
Activity calls are given as the source filed them. No stated cut-off is given here; in the data, active = GI50 up to about 1.1 µM and inactive = higher.
Could you please report measured GI50 for the items listed next?

Field: example entries. Status: answers known.
>  <compound>
O=C1/C(=C/c2ccccc2S)N=C(c2ccccc2)N1c1nc2ccc(Sc3ccccc3)cc2[nH]1

>  <GI50>
27 µM (inactive)

$$$$
>  <compound>
Cn1c(=O)c2c(ncn2CCNC(CO)C(O)c2ccc([N+](=O)[O-])cc2)n(C)c1=O (stereo not given)

>  <GI50>
> 100 µM (inactive)

$$$$
>  <compound>
COCOc1ccc(C(=O)Oc2cccc3c2OC(C)(C)O3)c(OCOC)c1

>  <GI50>
33.2 µM (inactive)

$$$$
>  <compound>
Oc1nc(-c2cccc(F)c2)nc2ccccc12

>  <GI50>
87.1 µM (inactive)

$$$$
>  <compound>
O=[N+]([O-])c1ccc(O)c(/C=N/c2nc(-c3ccccc3)cs2)c1

>  <GI50>
26.8 µM (inactive)

$$$$

For every record below, what is its GI50?
1. O=[N+]([O-])/C=C/c1cc2ccccc2[nH]1
2. O=c1[nH]nc(Cc2ccccc2)n1-n1cnnc1

1. 4.03 µM (inactive)
2. > 100 µM (inactive)

----------
# Tested on: HCC 2998
# protocol.text: NCI tumour cell line growth inhibition, 48 h
Calls of active or inactive are those of the source. Rule as the data show it: active = GI50 up to about 1.1 µM and inactive = higher.
metric: GI50

Observe how each entry below is paired with its result.
>  <molecule>
CC(=O)NC(CCCN(Cc1ccccc1)C(=O)N(CCCl)N=O)C(=O)NCc1ccccc1 (stereo not given)

>  <GI50>
64.6 µM (inactive)

$$$$
>  <molecule>
Cc1cc2c(cc1Cl)Sc1nnc(C)n1S2(=O)=O

>  <GI50>
17.7 µM (inactive)

$$$$
>  <molecule>
CC1CCC2C(C)C(=O)OC3OC4(C)CCC1C32OO4 (stereo not given)

>  <GI50>
> 100 µM (inactive)

$$$$

Below is a list of molecules. For each, state its recorded GI50.
1. O=C(/C=C/c1ccc2ccccc2c1)NCc1ccc(C(=O)NCc2ccccc2)cc1
2. CSc1nncc(-c2cc3c(c(SC)n2)CCCC3)n1
3. N=C(N)SC1c2ccccc2-c2cc([N+](=O)[O-])ccc21 (stereo not given)
4. COC1=C(OC)C(=O)C(Cc2c(Cl)nc3sc(C)cn23)=C(C)C1=O
5. CCOC(=O)C(NNS(=O)(=O)c1ccc(C)cc1)S(=O)(=O)C(F)(F)C(F)(F)C(F)(F)C(F)(F)F (stereo not given)
6. CC/C(C)=C1\OC(=O)C(C)C(O)C(Cc2cccnc2)NC(=O)C(NC(=O)c2ncccc2O)C(C)OC1=O (stereo not given)
7. O=S(=O)(c1ccccc1)c1nccs1

1. > 37.2 µM (inactive)
2. > 100 µM (inactive)
3. 2.59 µM (inactive)
4. 17.2 µM (inactive)
5. > 100 µM (inactive)
6. > 100 µM (inactive)
7. > 100 µM (inactive)

Just for reference, ChEMBL document CHEMBL1201862 is where these values come from.
